Values from ChEMBL document CHEMBL4622952

- Test system: HeLa
- runDescription: Antiproliferative activity against human HeLa cells assessed as reduction in cell viability measured after 48 hrs by MTT assay
- Assay type: functional, cell-based
Output condition met for records whose IC50 is lower than 50 µM, condition not met for records at or above 50 µM.

Look over these answered cases.
COC1=C(OC)C23C(=C/C1=N\OC(=O)C(C)C)C[C@H](C)[C@@]2(C)Cc1cc(OC)c(OC)c(OC)c13 (stereo partly specified)
condition met
COC1=C(OC)C23C(=C/C1=N\OC(=O)c1ccc(Br)cc1)C[C@H](C)[C@@]2(C)Cc1cc(OC)c(OC)c(OC)c13 (stereo partly specified)
condition met
CCCCCCCCCC(=O)O/N=C1\C=C2C[C@H](C)[C@@]3(C)Cc4cc(OC)c(OC)c(OC)c4C23C(OC)=C1OC (stereo partly specified)
condition not met
CCOC(=O)CCC(=O)O/N=C1\C=C2C[C@H](C)[C@@]3(C)Cc4cc(OC)c(OC)c(OC)c4C23C(OC)=C1OC (stereo partly specified)
condition met

Turning now to a further molecule:
Say whether its IC50 is strictly beneath 50 µM. Entry: COC1=C(OC)C23C(=CC1=O)C[C@H](C)[C@@]2(C)Cc1cc(OC)c(OC)c(OC)c13 (stereo partly specified)
condition met
